Below, each entry is listed alongside its reported Papp at 18 hours, 50 µM.
assay: PAMPA (parallel artificial membrane permeability assay); assay type: in vitro ADME; conditions: PAMPA; membrane permeation rate (Pe); 50 mM MOPSO buffer pH 6.5 with 5.0% glycocholic acid, 37° C., 18 hours; read-out: iPAMPA Pe
Starred links: 1 amine or outer side, 2 acyl side, 3 side chain; linkers in the order of their positions; H or OH if unused. Positions of bridges follow the written chain, without caps; N, C: chain ends. Non-standard residues stand in square brackets, D forms with d. Residues, ends and D or L forms follow the SMILES beside them. *: point of attachment. NMeF = CN[C@@H](Cc1ccccc1)C(=O)O; 3Pal = N[C@@H](Cc1cccnc1)C(=O)O; NMeβAla = CN(CCC(=O)[*:2])[*:1]; NMeL = CN[C@@H](CC(C)C)C(=O)O; NMeV = CN[C@H](C(=O)O)C(C)C; NMeS = CN[C@@H](CO)C(=O)O; NMeA = CN[C@@H](C)C(=O)O; Piperidide = C1CCN(*)CC1; dNMeA = CN[C@H](C)C(=O)O; β3hA = C[C@H](N)CC(=O)O; Sar = CNCC(=O)O
Entry rule: numbers only, all in ×10⁻⁶ cm/s.

Field: example entries. Status: answers known.
CC(C)C[C@H]1C(=O)N(C)[C@@H](CC(C)C)C(=O)N(C)[C@@H](Cc2ccccc2)C(=O)N[C@@H]([C@@H](C)O)C(=O)N(C)[C@@H](C)C(=O)N(C)[C@@H](CC(C)C)C(=O)N(C)[C@@H](Cc2ccccc2)C(=O)N[C@H](C(=O)N(C)[C@@H](Cc2ccccc2)C(=O)N[C@@H](C)C(=O)N2CCCCC2)CC(=O)N(C)[C@H](C)C(=O)N(C)[C@@H](CC(C)C)C(=O)N[C@@H](C)C(=O)N1C [DP-184] ([dNMeA][NMeL]A[NMeL][NMeL][NMeF]T[NMeA][NMeL][NMeF]D[NMeF]A-Piperidide; lactam N-11); 1.3
CC(C)C[C@H]1C(=O)N(C)[C@@H](CC(C)C)C(=O)N[C@H](C(=O)N(C)[C@@H](Cc2ccccc2)C(=O)N[C@@H](C)C(=O)N2CCCCC2)CC(=O)N[C@H](C(C)C)C(=O)N(C)[C@@H](C)C(=O)N(C)[C@@H](Cc2ccccc2)C(=O)N(C)[C@@H](CC(C)C)C(=O)N[C@@H](Cc2cccnc2)C(=O)N(C)CC(=O)N[C@@H](C)C(=O)N1C [DP-591] ([dV][NMeA][NMeF][NMeL][3Pal][Sar]A[NMeL][NMeL]D[NMeF]A-Piperidide; lactam N-10); 26
CC(C)C[C@H]1C(=O)N(C)[C@@H](Cc2ccccc2)C(=O)N[C@@H]([C@@H](C)O)C(=O)N(C)[C@@H](C)C(=O)N(C)[C@@H](CC(C)C)C(=O)N(C)[C@@H](C)C(=O)N[C@H](C(=O)N2CCCCC2)CC(=O)N(C)CCC(=O)N(C)[C@@H](C)C(=O)N[C@@H](C)C(=O)N(C)[C@@H](C(C)C)C(=O)N1C [DP-414] ([NMeβAla][NMeA]A[NMeV][NMeL][NMeF]T[NMeA][NMeL][NMeA]D-Piperidide; lactam N-11); 4.4

Item under review: CC(C)C[C@@H]1NC(=O)C[C@H](C)NC(=O)[C@H](C(C)C)NC(=O)[C@H](CC(C)C)N(C)C(=O)CN(C)C(=O)[C@H](CC(C)C)NC(=O)[C@H](CO)N(C)C(=O)[C@H](CC(C)C)N(C)C(=O)[C@H](CC(C)C)N(C)C(=O)[C@H](CC(C)C)N(C)C(=O)[C@@H](CC(C)C)NC1=O [DP-643] (cyclo(L[Sar][NMeL]V[β3hA]L[dL][NMeL][NMeL][NMeL][NMeS])) . Reported Papp at 18 hours, 50 µM?
29

Data provenance: patent US9409952B2
